Attribution: PubChem BioAssay (NCATS)

assay: Primary qHTS for inhibitors of nuclear receptor binding SET domain protein 2 (NSD2) in an isogenic RCH-ACV NSD2 p.E1099K mutant (9B) (AID 1645876); settings: RCH-ACV (leukaemia line) NSD2 E1099K (9B) viability, CellTiter-Glo, 72 h; series mostly up to 44.9 µM; also: nearly all actives have a fitted effect of over 70% in size
Results filed as inconclusive are left out. Activity calls are given as the source filed them. Calls follow the shape of the dose curve; as a rule, active = well fitted inhibition curve with a large enough effect; inconclusive = small, poorly fitted or top-dose-only effect; inactive = flat fitted curve, though single readings scatter.
Outcome field: choose from active, inactive

Please review the following examples before continuing.
COMPOUND	CLASS
O=C(CO)[C@@H](O)[C@H](O[C@@H]1O[C@H](CO)[C@H](O)[C@H](O)[C@H]1O)[C@H](O)CO	inactive
CNS(=O)(=O)c1ccccc1Nc1nc(Nc2ccc(N3CCN(C)CC3)cc2OC)ncc1Cl	active
COC(=O)C1=CO[C@@H](O[C@@H]2O[C@H](CO[C@@H]3O[C@H](COC(=O)/C=C/c4cc(OC)c(O)c(OC)c4)[C@@H](O)[C@H](O)[C@H]3O)[C@@H](O)[C@H](O)[C@H]2O)[C@@H]2C(CO)=CC[C@H]12	inactive
COC(=O)c1ccccc1O[C@@H]1O[C@H](CO)[C@@H](O)[C@H](O)[C@H]1O[C@@H]1O[C@@H](C)[C@H](O)[C@@H](O)[C@H]1O	inactive
CC1=C(C(=O)O)/C(=C\CO[C@@H]2O[C@H](CO)[C@@H](O)[C@H](O)[C@H]2O)C(OC(=O)/C=C/c2ccc(O)cc2)C1 (some centres not stated)	inactive
C[C@H](CCC(=O)O)[C@H]1CC[C@H]2[C@@H]3C[C@H](O)[C@@H]4C[C@H](O)CC[C@]4(C)[C@H]3CC[C@]12C	inactive

Would you kindly look at the next entry?
# fetch the recorded call for CC(=O)c1cc2c(cc1O)OC(C)(C)C=C2 here inactive

====

tested on: Es-2; assay: Primary qHTS to identify gynecologic anti-cancer compounds using libraries of approved drugs and bioactive compounds (AID 1345084); conditions: Gynecologic cancer cell panel viability, ATPlite luminescence, 48 h; series mostly up to 57.5 µM; also: nearly all actives have a fitted effect of over 55% in size
Results filed as inconclusive are left out. Calls of active or inactive are those of the source. Calls come from the whole dose curve; as a rule, active = well fitted cell-killing curve with a large enough effect; inconclusive = small, poorly fitted or top-dose-only effect, or effect the other way; inactive = flat fitted curve, though single readings scatter.
Assign a class; possible classes are yes (1) = active, no (0) = inactive

Study these solved cases before continuing.
MOLECULE	CLASS
c1ccc(-c2ncc(CN3CCN(c4ncccn4)CC3)[nH]2)cc1	no (0)
CC(=O)OC[C@]12[C@H](OC(C)=O)C(=O)[C@@H]3[C@@H](OC(C)=O)[C@@]14O[C@@]3(C)COC(=O)c1cccnc1[C@@H](C)[C@H](C)C(=O)O[C@@H]([C@H](O)[C@@H]2OC(C)=O)[C@]4(C)O	no (0)
C#CC[C@H](c1nc2cc(Cl)ccc2c(=O)n1Nc1ccccc1)N(CCCN)C(=O)c1cccc(Cl)c1F	yes (1)
CCn1cc(NC(=S)Nc2cc(Cl)ccc2OC)c(C(N)=O)n1	no (0)
CC(C)C(CO)Nc1nc(Nc2ccc(C(=O)O)c(Cl)c2)c2ncn(C(C)C)c2n1 (stereo not given)	no (0)
O=C(O)c1cc(-c2c(-c3ccccc3)nn3ccccc23)n[nH]c1=O	no (0)

Please indicate how the test categorized CC1(C)CCCC2(C)C=C(C(=O)O)C(O)CC12 (stereo not given) . no (0)

Outcome logged for CC1CCC2(C(=O)O)CCC3(C)C(=CCC4C5(C)CCC(OC(=O)/C=C/c6ccccc6)C(C)(C)C5CCC43C)C2C1C (stereo not given) in this assay: no (0)

Outcome logged for COC(=O)CC(C)(O)CC(=O)OCc1ccc(O[C@@H]2O[C@H](CO)[C@@H](O)[C@H](O)[C@H]2O)cc1 (stereo not given in full) in this assay: no (0)
